# tested.on: Lysine-specific demethylase 4C [1-350] (Homo sapiens, UniProt Q9H3R0)
# Construct: 1-350
# Sequence (Q9H3R0 1-350): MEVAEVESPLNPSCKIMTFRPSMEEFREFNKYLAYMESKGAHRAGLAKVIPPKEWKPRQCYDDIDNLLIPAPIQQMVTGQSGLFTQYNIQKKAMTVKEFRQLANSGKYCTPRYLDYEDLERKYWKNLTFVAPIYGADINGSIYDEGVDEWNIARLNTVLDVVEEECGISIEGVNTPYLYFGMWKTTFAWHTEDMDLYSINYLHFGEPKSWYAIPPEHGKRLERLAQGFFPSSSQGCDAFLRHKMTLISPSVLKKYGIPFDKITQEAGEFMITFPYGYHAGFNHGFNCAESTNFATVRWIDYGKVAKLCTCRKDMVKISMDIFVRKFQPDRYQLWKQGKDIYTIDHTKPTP
# experiment.description: KDM4C Enzymatic Screening Assay
# test.settings: pH 7.5
result.type: IC50 (µM)
Write down the numeric answer in µM and omit the unit.

Name the recorded IC50 for `CC(C)c1c(-c2ccccc2)[nH]c2c(C#N)cnn2c1=O` .
2

* * *

# tested.on: Lysine-specific demethylase 5B (Homo sapiens, UniProt Q9UGL1)
result.type: pIC50
Scale for pIC50: -log10 of concentration given in mol/L; no unit attached.

What value of measured pIC50 is listed for CC(C)c1c(-c2ccccc2)[nH]c2c(C#N)cnn2c1=O [CPI-455] ?
8.52

* * *

A short record of pIC50 observed with Lysine-specific demethylase 5A (Homo sapiens, UniProt P29375) follows.
Sequence (P29375 whole entry): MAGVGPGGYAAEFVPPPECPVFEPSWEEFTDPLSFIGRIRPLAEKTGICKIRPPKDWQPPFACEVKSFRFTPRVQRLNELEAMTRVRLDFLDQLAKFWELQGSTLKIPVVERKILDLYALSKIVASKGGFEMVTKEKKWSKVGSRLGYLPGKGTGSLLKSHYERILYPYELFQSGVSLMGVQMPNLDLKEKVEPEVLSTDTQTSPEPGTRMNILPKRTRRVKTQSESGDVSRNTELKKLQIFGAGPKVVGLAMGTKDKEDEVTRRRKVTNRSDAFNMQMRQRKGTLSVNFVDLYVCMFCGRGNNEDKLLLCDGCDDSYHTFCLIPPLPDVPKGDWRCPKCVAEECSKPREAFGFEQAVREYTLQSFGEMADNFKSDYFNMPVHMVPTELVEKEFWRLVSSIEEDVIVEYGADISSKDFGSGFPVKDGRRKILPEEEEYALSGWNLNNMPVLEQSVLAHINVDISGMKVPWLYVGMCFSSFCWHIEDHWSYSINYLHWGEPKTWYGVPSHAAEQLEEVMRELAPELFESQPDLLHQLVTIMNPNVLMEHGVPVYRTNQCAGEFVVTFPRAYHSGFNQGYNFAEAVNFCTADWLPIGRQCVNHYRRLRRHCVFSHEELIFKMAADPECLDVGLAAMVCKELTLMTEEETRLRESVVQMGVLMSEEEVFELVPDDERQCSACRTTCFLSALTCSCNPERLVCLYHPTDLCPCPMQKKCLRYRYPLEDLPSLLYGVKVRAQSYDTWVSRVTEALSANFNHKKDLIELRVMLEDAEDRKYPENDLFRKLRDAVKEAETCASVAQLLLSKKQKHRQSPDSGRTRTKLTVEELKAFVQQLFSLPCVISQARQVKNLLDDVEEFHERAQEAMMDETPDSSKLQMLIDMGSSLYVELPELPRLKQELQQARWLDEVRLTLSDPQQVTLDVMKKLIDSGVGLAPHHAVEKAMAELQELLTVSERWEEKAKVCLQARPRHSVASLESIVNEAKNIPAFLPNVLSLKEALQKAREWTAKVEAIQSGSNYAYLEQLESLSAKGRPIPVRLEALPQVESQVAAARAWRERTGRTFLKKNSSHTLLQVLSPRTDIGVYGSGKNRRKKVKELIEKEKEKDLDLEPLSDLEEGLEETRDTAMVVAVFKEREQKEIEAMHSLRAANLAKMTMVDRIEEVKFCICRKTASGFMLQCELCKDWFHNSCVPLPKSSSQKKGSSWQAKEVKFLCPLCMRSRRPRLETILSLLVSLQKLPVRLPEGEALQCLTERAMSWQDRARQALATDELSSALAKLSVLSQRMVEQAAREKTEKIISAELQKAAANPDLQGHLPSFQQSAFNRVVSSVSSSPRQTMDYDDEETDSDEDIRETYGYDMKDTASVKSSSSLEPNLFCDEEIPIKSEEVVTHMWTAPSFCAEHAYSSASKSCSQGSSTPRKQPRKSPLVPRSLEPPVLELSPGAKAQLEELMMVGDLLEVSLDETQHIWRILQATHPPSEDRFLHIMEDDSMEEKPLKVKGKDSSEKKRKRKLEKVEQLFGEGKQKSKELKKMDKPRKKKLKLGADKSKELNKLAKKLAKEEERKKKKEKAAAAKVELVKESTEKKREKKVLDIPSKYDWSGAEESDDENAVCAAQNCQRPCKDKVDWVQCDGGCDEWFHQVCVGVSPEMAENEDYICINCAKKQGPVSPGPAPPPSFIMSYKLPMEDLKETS
Bear in mind: pIC50 is minus log10 of a mol/L concentration; give just that figure.

# input compound: O=C(O)CCNc1cc(N2CCc3ccccc3CC2)nc(-c2ccccn2)n1 [GSK-J1] ; wanted: its pIC50
5.54

# repeat for CCc1c(C)[nH]c2c(C#N)cnn2c1=O [KDM inhibitor, 3]
7.70

* * *

# tested.on: Histone lysine demethylase PHF8 (Homo sapiens, UniProt Q9UPP1)
# Sequence (Q9UPP1 whole entry): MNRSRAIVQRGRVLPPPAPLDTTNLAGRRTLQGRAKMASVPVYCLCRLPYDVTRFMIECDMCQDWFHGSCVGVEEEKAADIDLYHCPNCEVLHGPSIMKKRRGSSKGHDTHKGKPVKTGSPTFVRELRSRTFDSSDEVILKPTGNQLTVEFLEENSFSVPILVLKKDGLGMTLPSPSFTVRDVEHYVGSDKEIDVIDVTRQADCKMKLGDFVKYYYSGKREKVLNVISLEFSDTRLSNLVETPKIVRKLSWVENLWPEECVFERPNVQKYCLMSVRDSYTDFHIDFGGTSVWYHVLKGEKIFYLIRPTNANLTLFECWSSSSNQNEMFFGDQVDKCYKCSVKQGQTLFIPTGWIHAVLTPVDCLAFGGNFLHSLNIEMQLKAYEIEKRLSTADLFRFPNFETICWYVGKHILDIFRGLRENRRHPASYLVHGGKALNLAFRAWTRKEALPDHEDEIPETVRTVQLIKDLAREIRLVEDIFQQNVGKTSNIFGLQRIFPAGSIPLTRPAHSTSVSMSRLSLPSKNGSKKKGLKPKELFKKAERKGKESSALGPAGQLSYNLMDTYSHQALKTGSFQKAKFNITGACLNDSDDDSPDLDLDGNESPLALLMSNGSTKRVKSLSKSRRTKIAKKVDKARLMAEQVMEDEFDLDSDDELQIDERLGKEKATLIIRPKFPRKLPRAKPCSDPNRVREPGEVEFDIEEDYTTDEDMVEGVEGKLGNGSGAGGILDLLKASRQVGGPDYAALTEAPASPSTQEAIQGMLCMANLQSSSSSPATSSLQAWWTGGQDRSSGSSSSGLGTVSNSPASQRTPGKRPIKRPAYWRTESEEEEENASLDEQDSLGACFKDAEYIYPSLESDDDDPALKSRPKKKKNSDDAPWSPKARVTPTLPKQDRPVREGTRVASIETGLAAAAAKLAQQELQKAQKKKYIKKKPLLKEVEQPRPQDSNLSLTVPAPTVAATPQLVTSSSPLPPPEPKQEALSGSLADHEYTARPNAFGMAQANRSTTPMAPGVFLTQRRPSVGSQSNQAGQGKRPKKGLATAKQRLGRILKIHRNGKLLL
pIC50: −log10 of the molar value.
result.type: pIC50

Provide the documented pIC50 with Histone lysine demethylase PHF8 (Homo sapiens, UniProt Q9UPP1) as the system for CCc1c(-c2ccccc2C)[nH]c2c(C#N)cnn2c1=O [CPI-4203]
< 4.60

Repeat for the following molecule: O=C(O)CCNc1cc(N2CCc3ccccc3CC2)nc(-c2ccccn2)n1 [GSK-J1]
< 4.60

Entry to check: CC(C)c1c(-c2ccccc2)[nH]c2c(C#N)cnn2c1=O [CPI-455]
5.11

* * *

Test system Lysine-specific demethylase 3B (Homo sapiens, UniProt Q7LBC6), IC50 listed for each of the molecules.

Entry under review: CCc1c(-c2ccccc2C)[nH]c2c(C#N)cnn2c1=O [CPI-4203] . Reported IC50?
> 25 µM

And then O=C(O)CCNc1cc(N2CCc3ccccc3CC2)nc(-c2ccccn2)n1 [GSK-J1] , what is it?
> 25 µM

* * *

# tested.on: Lysine-specific demethylase 6A (Homo sapiens)
result.type: IC50

# input compound: `CC(C)c1c(-c2ccccc2)[nH]c2c(C#N)cnn2c1=O` ; wanted: its IC50
> 25 µM

* * *

# tested.on: Lysine-specific demethylase 5C (Homo sapiens)
# Sequence (P41229 whole entry): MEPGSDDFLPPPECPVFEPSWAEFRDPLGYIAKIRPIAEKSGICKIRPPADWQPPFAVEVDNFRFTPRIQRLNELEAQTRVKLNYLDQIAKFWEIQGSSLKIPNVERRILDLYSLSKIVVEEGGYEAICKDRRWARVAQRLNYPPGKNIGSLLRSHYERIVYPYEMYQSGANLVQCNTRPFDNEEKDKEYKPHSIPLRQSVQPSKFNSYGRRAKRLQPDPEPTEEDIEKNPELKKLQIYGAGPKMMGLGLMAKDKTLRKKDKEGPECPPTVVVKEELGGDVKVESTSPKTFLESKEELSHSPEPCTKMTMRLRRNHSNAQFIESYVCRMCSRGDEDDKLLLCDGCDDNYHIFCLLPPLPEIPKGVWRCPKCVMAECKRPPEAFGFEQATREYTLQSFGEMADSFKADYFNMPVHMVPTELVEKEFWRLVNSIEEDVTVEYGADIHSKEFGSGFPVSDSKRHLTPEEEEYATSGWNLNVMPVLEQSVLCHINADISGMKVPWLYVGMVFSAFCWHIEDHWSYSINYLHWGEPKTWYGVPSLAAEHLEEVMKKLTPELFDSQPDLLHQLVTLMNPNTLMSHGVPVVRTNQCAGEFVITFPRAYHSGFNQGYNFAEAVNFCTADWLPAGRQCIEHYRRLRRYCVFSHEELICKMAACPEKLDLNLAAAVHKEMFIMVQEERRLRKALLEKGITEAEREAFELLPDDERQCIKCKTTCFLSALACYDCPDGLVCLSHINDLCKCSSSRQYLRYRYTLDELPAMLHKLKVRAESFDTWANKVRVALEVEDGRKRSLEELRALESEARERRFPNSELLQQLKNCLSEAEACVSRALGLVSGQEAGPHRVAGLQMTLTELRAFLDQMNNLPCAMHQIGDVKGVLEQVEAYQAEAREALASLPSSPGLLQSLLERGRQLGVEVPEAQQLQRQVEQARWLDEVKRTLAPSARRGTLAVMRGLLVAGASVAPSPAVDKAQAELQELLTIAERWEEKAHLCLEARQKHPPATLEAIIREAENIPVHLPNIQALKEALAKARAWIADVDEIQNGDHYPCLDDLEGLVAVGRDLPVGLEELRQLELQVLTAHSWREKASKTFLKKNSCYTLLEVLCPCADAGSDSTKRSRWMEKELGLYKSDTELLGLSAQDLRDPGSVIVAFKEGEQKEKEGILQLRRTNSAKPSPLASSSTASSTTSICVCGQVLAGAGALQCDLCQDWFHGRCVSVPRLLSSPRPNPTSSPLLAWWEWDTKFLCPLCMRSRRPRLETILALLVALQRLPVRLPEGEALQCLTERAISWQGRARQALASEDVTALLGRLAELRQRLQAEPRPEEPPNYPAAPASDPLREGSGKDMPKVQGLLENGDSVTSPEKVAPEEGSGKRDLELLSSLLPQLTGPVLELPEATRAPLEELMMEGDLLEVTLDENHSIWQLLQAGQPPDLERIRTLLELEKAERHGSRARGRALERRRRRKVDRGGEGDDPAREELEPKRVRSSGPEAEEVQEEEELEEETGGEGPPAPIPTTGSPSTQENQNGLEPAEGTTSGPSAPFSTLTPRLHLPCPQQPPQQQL
Kindly state pIC50 for each of the entries shown.
In plain terms, pIC50 is the concentration in mol/L turned into minus its base-10 logarithm.

Give its pIC50 value. Item: `CC(C)c1c(-c2ccccc2)[nH]c2c(C#N)cnn2c1=O`
7.85

Subsequent entry: `O=C(O)CCNc1cc(N2CCc3ccccc3CC2)nc(-c2ccccn2)n1`
5.92
